target: serotonin 4 receptor (Cavia porcellus); construct: from tissue; host or cells: ileum longitudinal muscle strips of Hartley guinea pig; assay: Serotonin 4 receptor stimulating activity: twitch responses of electrically stimulated ileum longitudinal muscle strips; type: cell-based, guinea pig (Hartley); settings: twitch responses, guinea pig ileum longitudinal muscle strips, cumulative additions of agonist; read-out: ED50 of the serotonin 4 receptor stimulating activity
MEASURED PROPERTY: EC50 (µM)
Respond numerically; units are µM and should not be typed.

CCCn1c(=O)c(C(=O)N[C@H]2C[C@H]3CC[C@@H](C2)N3C)cc2ccccc21
0.413
CCn1c(=O)c(C(=O)N[C@H]2C[C@H]3CC[C@@H](C2)N3C)cc2ccccc21
0.138

Requested read-out: EC50. Entry: CC(C)Cn1c(=O)c(C(=O)N[C@H]2C[C@H]3CC[C@@H](C2)N3C)cc2ccccc21
0.974

###

target: serotonin 4 receptor (Cavia porcellus); construct: from tissue; host or cells: ileum longitudinal muscle strips of Hartley guinea pig; test: Serotonin 4 receptor stimulating activity: twitch responses of electrically stimulated ileum longitudinal muscle strips; assay type: cell-based, guinea pig (Hartley)
MEASURED PROPERTY: EC50 (nM)
Just the number please, in nM, no unit attached.

Report EC50 for CC(C)n1c(=O)c(C(=O)N[C@H]2C[C@H]3CC[C@@H](C2)N3C)cc2ccccc21 [Compound 1] please.
21.4

###

biological target: serotonin 4 receptor (Cavia porcellus, UniProt O70528); construct: from tissue; host or cells: ileum longitudinal muscle strips of Hartley guinea pig; assay: Serotonin 4 receptor stimulating activity: twitch responses of electrically stimulated ileum longitudinal muscle strips; type: cell-based, guinea pig (Hartley); conditions: twitch responses, guinea pig ileum longitudinal muscle strips, cumulative additions of agonist; read-out: ED50 of the serotonin 4 receptor stimulating activity
Sequence (O70528 whole entry): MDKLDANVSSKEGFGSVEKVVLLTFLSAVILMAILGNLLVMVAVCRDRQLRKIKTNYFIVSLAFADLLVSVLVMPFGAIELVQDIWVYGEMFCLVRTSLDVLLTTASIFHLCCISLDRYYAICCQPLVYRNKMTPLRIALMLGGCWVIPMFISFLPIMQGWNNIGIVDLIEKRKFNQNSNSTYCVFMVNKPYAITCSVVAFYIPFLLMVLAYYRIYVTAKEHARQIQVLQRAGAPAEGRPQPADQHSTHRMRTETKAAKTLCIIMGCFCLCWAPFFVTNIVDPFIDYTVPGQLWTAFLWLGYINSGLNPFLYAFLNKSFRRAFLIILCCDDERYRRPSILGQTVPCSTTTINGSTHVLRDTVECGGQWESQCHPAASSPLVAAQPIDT
Catalogue of compounds with associated EC50

Please give the measured EC50 for this compound: CN1[C@@H]2CC[C@H]1C[C@@H](NC(=O)c1cc3ccccc3[nH]c1=O)C2
> 3 µM

Also check CCCCn1c(=O)c(C(=O)N[C@H]2C[C@H]3CC[C@@H](C2)N3C)cc2ccccc21
> 3 µM

What do you get for CCCCn1c(=O)c(C(=O)N[C@H]2C[C@H]3CC[C@@H](C2)N3C)c(O)c2ccccc21 ?
> 3 µM
